- Test system: SK-MEL-5 melanoma
- MEASUREMENT_DESCRIPTION: NCI tumour cell line growth inhibition, 48 h
MEASURED_PARAMETER: TGI (µM)
Just the number in µM, nothing appended.

// known answers, use as guide
CCN(CC)C(=S)N=Nc1c(O)[nH]c2ccccc12 | 2.41
Cc1ccc(S(=O)(=O)n2c3c(c4ccccc42)CCN2CCC(Br)C[C@@H]32)cc1 (stereo partly specified) | 20.2
N=C(N)c1ccc(COc2ccccc2OCc2ccc(C(=N)N)cc2)cc1 | 44.5

Next up:
What value of TGI has been reported for the following compound? CC(=O)O[C@H]1CCn2c3c(c(C)c21)C(=O)C(N1CC1)=C(C)C3=O
6.67

====

- System: UACC-257 melanoma
- MEASUREMENT_DESCRIPTION: NCI tumour cell line growth inhibition, 48 h
MEASURED_PARAMETER: GI50

Completed entries (count: 3):
OCC1OC(n2cnc3c(=S)nc[nH]c32)C(O)C1O (stereo unspecified) | > 100 µM
COC(=O)C1=C(OC(=O)c2ccc(Cl)cc2)C(C(=O)OC)[C@@]2(O)[C@@H](C(=O)OC)C(c3ccccc3Cl)C[C@@H]1[C@@H]2C(=O)OC (stereo partly specified) | 3.52 µM
Cc1cn2c(/C=N/Nc3ccccn3)c(-c3ccc(Cl)c([N+](=O)[O-])c3)nc2s1 | 21.3 µM

// GI50 lookup, key: CN(C)c1ccc(C(=C2C=CC(=[N+](C)C)C=C2)c2ccc(N(C)C)cc2)cc1
0.228 µM

Which value of GI50 has been reported for COCCNc1cc(NC(=O)N2CCCc3cc(CN4CCN(C)CC4=O)c(C=O)nc32)ncc1C#N in the records?
> 50 µM

Return reported GI50; argument: CN(C)CC1CCCCCC(CN(C)C)C1=O (stereo unspecified)
1.77 µM

Give the measured GI50 of CCCCNC(=O)NS(=O)(=O)c1ccc(N2N=C(c3cc(C)ccc3C)CC2c2cc(OC)c(OC)c(OC)c2)cc1 (stereo unspecified) .
3.39 µM

Look up GI50: Nc1n[nH]c2ccc([C@@H]3Nc4ccc5[nH]ncc5c4[C@H]4C5C=CC(C5)[C@@H]34)cc12 (stereo partly specified)
12.5 µM

====

- Tested on: A549 NSCLC
- MEASUREMENT_DESCRIPTION: NCI tumour cell line growth inhibition, 48 h
MEASURED_PARAMETER: TGI

Example cases with answers are listed next.
O=c1oc(-c2ccccc2)c(-c2ccccc2)n1-c1ccc(Br)cc1 | > 100 µM
COc1cccc2c1C(=O)c1ccc3cc(CCl)cc(O)c3c1C2=O | 1.36 µM
CCC(=O)N(O)C(C)(C)C | > 100 µM
Cn1ccnc1C(=O)/C=C/c1ccc(CC(=O)Nc2ccc(C(F)(F)F)cc2)cc1 | 10.3 µM

Which TGI value belongs to N.N.NCCCCCCN.O=C([O-])CC(=O)[O-].O=C([O-])CC(=O)[O-].[Pt+4].[Pt+4] ?
> 100 µM

Quick check: TGI of COc1cc(C)c(O)c(C(=O)O)c1 ?
> 100 µM

Consider the compound shown here: Cc1ccc(Nc2nc(NS(=O)(=O)c3cc(C(=O)Nc4ccc(Cl)cc4)c(Cl)cc3S)n[nH]2)cc1 What is its recorded TGI?
> 100 µM

Data request, read-out TGI, for CSc1ccccc1C#Cc1ccccc1C#CCCCCO
27.1 µM

So what's the measured TGI for this one? C/C(CC1SCCCS1)=C(/C)CC1SCCCS1
> 100 µM

Bench note: what TGI did Cc1c(Cl)cccc1NC1=C(Cl)C(=O)N(Cc2ccccc2)C1=O show?
29.6 µM

# TGI lookup, item O=C1NC2C=CN(Cc3ccccc3)C=C2C(=O)N2CCCC12 (stereo unspecified)
> 100 µM

Form field: reported TGI of COc1cc(C(=O)/C=C/c2cccnc2Nc2ccccc2)cc(OC)c1OC
2.86 µM

====

# maps each entry to its GI50
- Test system: UO-31 renal
- MEASUREMENT_DESCRIPTION: NCI tumour cell line growth inhibition, 48 h

C[C@]12CCc3sc(Nc4ccc(O)cc4)nc3C1=CC[C@@H]1[C@@H]2CC[C@]2(C)C(=O)CC[C@@H]12 | 1.54 µM
CC(=O)O[C@H]1CC[C@@]2(C)[C@@H](CC[C@@H]3[C@@H]2CC[C@]2(C)C=C(C=O)C[C@@H]32)C1 | 18.8 µM
COc1cc(C2C3=C(COC3=O)Nc3cc4c(cc32)CCC4)cc2c1OCO2 (stereo unspecified) | 1.05 µM
Cc1ccc2c(c1)C(=O)c1c-2n(CCCBr)c(=O)c2cc([N+](=O)[O-])ccc12 | 27.5 µM
CCCOc1nc(SCCC)nc2c1cnn2-c1ccccc1 | > 100 µM
Nc1ccc(-c2ccc(N)cc2I)c(I)c1 | 10.6 µM
FC(F)(F)c1ccc(-c2cnc(Cl)nc2NCc2cc(C(F)(F)F)cc(C(F)(F)F)c2)cc1 | 2.51 µM
CC1(C)CC[C@]2(C(=O)N3CCOCC3)CC[C@]3(C)C(=CC[C@@H]4[C@@]5(C)C/C(=C/c6ccncc6)C(=O)C(C)(C)[C@@H]5CC[C@]43C)[C@@H]2C1 | 0.893 µM

Entry under review: Nc1cc(N)c2nc(-c3ccccc3)c(NCc3ccc(F)cc3)nc2c1 . Reported GI50?
3.81 µM

Fill blank: measured GI50 of the compound CSc1ccccc1C#Cc1ccccc1C#CCCCCO is ____.
12.6 µM

Field request: GI50 | item: CCN(CC)c1ccc(C(=N)c2ccc(N(C)C)cc2)cc1
1.45 µM

====

- Tested on: U251 CNS
Answer with one of the outcomes active, inactive

CCOc1ccccc1/C=N\N=C(\N)N/N=C/c1ccccc1OCC | inactive

Query: recorded result category for Cc1[nH]c2ccccc2c1CCNCc1ccc(/C=C/C(=O)NO)cc1 in this test
active

Please indicate how the test categorized O=C(N/N=C/c1cc([N+](=O)[O-])ccc1O)c1cccc2ccccc12 .
inactive

Short answer needed: outcome of this test for O=C(COc1cccc(/C=C2\COc3ccc(Cl)cc3C2=O)c1)c1ccc(Cl)cc1 ?
inactive

Could you check what this test reported for N=C(N)c1ccc(COc2ccccc2OCc2ccc(C(=N)N)cc2)cc1 ?
inactive

Could you kindly confirm the outcome this assay logged for COc1cc(C2CC(c3ccc(N(C)C)cc3)=NN2C(C)=O)cc(OC)c1OC (centres undefined) ?
inactive

Given Cn1ccnc1C(=O)/C=C/c1ccc(CC(=O)Nc2ccc(C(F)(F)F)cc2)cc1 , state the outcome it received in this test.
inactive

Each compound tested received a call. Report the one for Nc1cc(N)c2nc(-c3ccccc3)c(NCc3ccc(F)cc3)nc2c1 .
inactive

Any idea what this test logged for Cc1cn2c(/C=N/Nc3ccccn3)c(-c3ccc(Cl)c([N+](=O)[O-])c3)nc2s1 ?
inactive

Assay result, entry CS(=O)(=O)Nc1ccc(N=Cc2c(O)[nH]c3ccccc23)cc1 — outcome?
inactive

Hi team, can someone confirm the assay call for O=C(CCCSc1nc(-c2ccccc2)cc(-c2ccc(Cl)cc2)n1)NO ?
inactive

Recorded call for O=C(CN1CCN(c2ccccc2)CC1)N1CCN(c2nnc(-c3ccc(Cl)cc3)c(-c3ccc(Cl)cc3)n2)CC1 ?
inactive

GET /call?item= COC(=O)C1=C(OC(=O)c2ccc(Cl)cc2)C(C(=O)OC)[C@@]2(O)[C@@H](C(=O)OC)C(c3ccccc3Cl)C[C@@H]1[C@@H]2C(=O)OC (some centres undefined) returns the recorded outcome of this test.
inactive

What did the test return for CC(C)N1C(NNC(=O)c2cnccn2)=NS(=O)(=O)c2ccccc21 ?
inactive

====

- Tested on: NCI-H460 lung
- MEASUREMENT_DESCRIPTION: NCI tumour cell line growth inhibition, 48 h
MEASURED_PARAMETER: TGI

Before answering, review these 3 worked examples.
O=C(CCCSc1nc(-c2ccccc2)cc(-c2ccc(Cl)cc2)n1)NO | 7.29 µM
CC(C)/C(Cl)=N\OC(=O)Nc1ccc(F)cc1F | 43.1 µM
CCSc1nc(=[N+]2CCCC2)ss1 | > 100 µM

Please report the recorded TGI for C=C1C(=O)O[C@H]2[C@H]3O[C@@H](C[C@@H]12)[C@@]1(C)CC[C@H](O1)C(C)=CCC[C@H]3C .
7.26 µM

Which TGI value belongs to COC(=O)C1=C(C(=O)OC)SC(=C(N=Nc2ccccc2)c2ccccc2)S1 ?
> 100 µM

Please report the recorded TGI for O=C(Nc1nc(=S)c2c(ncn2CCO)[nH]1)c1ccccc1 .
> 100 µM

Quick check: TGI of N#Cc1[nH]c(=O)n(-c2cccc3ccccc23)c1N ?
> 10 µM

====

- System: RXF 393 renal
- MEASUREMENT_DESCRIPTION: NCI tumour cell line growth inhibition, 48 h
Each entry below carries its reported GI50.

Worked cases, GI50 given:
CS(=O)(=O)Nc1ccc(N=Cc2c(O)[nH]c3ccccc23)cc1 | > 25 µM
CC(C)C[C@H](NC(=O)[C@@H](O)[C@H](N)Cc1ccc([N+](=O)[O-])cc1)C(=O)O | 19.2 µM

Note: attention shifts to another entry.
Which GI50 is listed for CCCCN(CCCC)c1ccc(C(=NC(C)CCCN(CC)CC)c2ccc(N(C)C)cc2)cc1 (stereo not drawn) ?
0.73 µM

Data credit: PubChem BioAssay (NCI)
